target.desc: T1, human IL-2Rα (human, UniProt P01589 22-240, limits assumed)
T1 construct: recombinant protein; also called hu IL-2R; human IL-2Ra
T1 sequence: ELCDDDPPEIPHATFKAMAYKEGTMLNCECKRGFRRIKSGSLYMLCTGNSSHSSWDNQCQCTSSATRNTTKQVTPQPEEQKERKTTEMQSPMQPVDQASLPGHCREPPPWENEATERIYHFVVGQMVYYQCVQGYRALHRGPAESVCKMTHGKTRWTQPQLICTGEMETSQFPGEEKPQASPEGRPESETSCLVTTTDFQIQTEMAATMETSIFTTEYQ
test.name: ELISA, P.E. on coated antigen
endpoint.name: OD (PE binding ELISA) (OD450 nm)
The answer is to be given in OD450 nm; state only the numeric part.

Reported OD (PE binding ELISA) ( FJ1427_P035MP05D06 (VHH, periplasmic extract; also called clone nr) VHH: QVQLVESGGGLVQAGDSLRLSCAASGFNFGWHAMGWFRQAPGKEREFVATITWTGRDTYYADSVRGRFTISKDNAKDTLFLQMNSLRPDDTGVYYCAKARERATWAYSEDDCDYWGQGTQVTVSS ) = 2.51

# binder FJ1427_P035MP01F08 (VHH, periplasmic extract; also called clone nr; 62) VHH: EVQLVESGGGWVQPGDSLRLSCAASGRSFRNYVMGWFRQVPGKEREFLSVITSLGGTLDADSVADRFTISRDNSKNTVYLQMDSLKPEDTAVYYCAADRGPARYISASDVDYWGQGTQVTVSS ; its OD (PE binding ELISA) = 2.71

Lab book: OD (PE binding ELISA) of FJ1427_P035MP01F12 (VHH, periplasmic extract; also called clone nr; 94) VHH: EVQLVESGGGLVQAGGSLGLSCAASGITFNDHTMAWFRQAPGKEREFVAARDWSDIITRYASSVKGRFTISRDNAGNTGFLQMNSLRPEDTAVYYCAAREGGVVAGVRSGAPYDYWGQGTQVTVSP noted as 2.67

The measured OD (PE binding ELISA) associated with FJ1427_P035MP05E08 (VHH, periplasmic extract; also called clone nr) VHH: EVQLVESGGGSVQAGGSLRLSCEASGPTLFSSYGMGWFRQAPGKKEREFVGAISRYGTYTSYADPVKDRFTISRDNAKSTVYLQMNNTKPEDTAVYYCAAYTYSGSFYSTVKTHHDEYHYWGQGTQVTVSS reads 2.33
